assay: Cytotoxicity against human skin fibroblast cells incubated for 72 hrs by MTT assay; format: toxicity, cell-based
IC50 at 72 h by entry:

cpd-smiles | IC50 at 72 h / µM
C=C(C)[C@@H]1CC[C@]2(C(=O)OCCCCCC[P+](c3ccccc3)(c3ccccc3)c3ccccc3)CC[C@]3(C)[C@H](CC[C@@H]4[C@@]5(C)CC[C@H](O)C(C)(C)[C@@H]5CC[C@]43C)[C@@H]12.[Br-] | 8.5
C=C(C)[C@@H]1CC[C@]2(C(=O)OCCCCCC[P+](c3ccccc3)(c3ccccc3)c3ccccc3)CC[C@]3(C)[C@H](CC[C@@H]4[C@@]5(C)CC[C@H](O[C@@H]6O[C@H](CO)[C@@H](O)[C@H](O)[C@H]6O)C(C)(C)[C@@H]5CC[C@]43C)[C@@H]12.[Br-] | 16.5
C=C(C)[C@@H]1CC[C@]2(C(=O)OCCCCCC[P+](c3ccccc3)(c3ccccc3)c3ccccc3)CC[C@]3(C)[C@H](CC[C@@H]4[C@@]5(C)CC[C@H](O[C@H]6O[C@H](CO)[C@@H](O)[C@H](O)[C@@H]6O)C(C)(C)[C@@H]5CC[C@]43C)[C@@H]12.[Br-] | 2.9
C=C(C)[C@@H]1CC[C@]2(C(=O)OCCCCCC[P+](c3ccccc3)(c3ccccc3)c3ccccc3)CC[C@]3(C)[C@H](CC[C@@H]4[C@@]5(C)CC[C@H](O[C@@H]6O[C@@H](C)[C@H](O)[C@@H](O)[C@H]6O)C(C)(C)[C@@H]5CC[C@]43C)[C@@H]12.[Br-] | 10.8

src = ChEMBL document CHEMBL5360626
